ASSAY SYSTEM: T1, Human CD3eg linker (human)
T1 construct: single-chain construct; also called recombinant human CD3
T1 chain: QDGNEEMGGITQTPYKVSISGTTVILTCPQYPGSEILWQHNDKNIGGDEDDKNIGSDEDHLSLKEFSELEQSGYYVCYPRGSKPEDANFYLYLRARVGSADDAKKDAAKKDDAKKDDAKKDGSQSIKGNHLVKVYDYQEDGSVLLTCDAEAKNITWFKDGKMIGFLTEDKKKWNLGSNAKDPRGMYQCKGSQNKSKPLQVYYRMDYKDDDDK
TEST DETAILS: SPR, vs unmutated H183/L072
Could you please mark Fulfilled for values of fold change of affinity below 0.6 fold and Not fulfilled for values at or above it?

binder="dBBDu183H H93E/dBBDu072L (antibody, name in Kabat numbering, V domains shown) VH: QVQLVESGGGLVQPGRSLRLSCAASGFTFSNAWMHWVRQAPGKGLEWVAQIKDKGNAYAAYYAPSVKGRFTISRDDSKNSIYLQMNSLKTEDTAVYYCEYVHYASASTVLPAFGVDAWGQGTTVTVSS VL: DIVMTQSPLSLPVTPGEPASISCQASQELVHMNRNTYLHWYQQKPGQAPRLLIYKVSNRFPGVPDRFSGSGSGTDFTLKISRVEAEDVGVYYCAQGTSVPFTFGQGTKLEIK" class_name=Fulfilled
binder="dBBDu183H S99R/dBBDu072L (antibody, name in Kabat numbering, V domains shown) VH: QVQLVESGGGLVQPGRSLRLSCAASGFTFSNAWMHWVRQAPGKGLEWVAQIKDKGNAYAAYYAPSVKGRFTISRDDSKNSIYLQMNSLKTEDTAVYYCHYVHYARASTVLPAFGVDAWGQGTTVTVSS VL: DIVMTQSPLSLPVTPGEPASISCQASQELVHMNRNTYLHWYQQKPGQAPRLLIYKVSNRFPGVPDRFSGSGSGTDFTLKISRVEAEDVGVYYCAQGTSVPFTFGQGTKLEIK" class_name="Not fulfilled"
binder="dBBDu183H F100gT/dBBDu072L (antibody, name in Kabat numbering, V domains shown) VH: QVQLVESGGGLVQPGRSLRLSCAASGFTFSNAWMHWVRQAPGKGLEWVAQIKDKGNAYAAYYAPSVKGRFTISRDDSKNSIYLQMNSLKTEDTAVYYCHYVHYASASTVLPATGVDAWGQGTTVTVSS VL: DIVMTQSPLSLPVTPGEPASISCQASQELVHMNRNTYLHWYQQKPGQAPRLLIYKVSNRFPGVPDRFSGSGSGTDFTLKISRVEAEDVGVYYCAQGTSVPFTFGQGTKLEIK" class_name="Not fulfilled"
binder="dBBDu183H G65R/dBBDu072L (antibody, name in Kabat numbering, V domains shown) VH: QVQLVESGGGLVQPGRSLRLSCAASGFTFSNAWMHWVRQAPGKGLEWVAQIKDKGNAYAAYYAPSVKRRFTISRDDSKNSIYLQMNSLKTEDTAVYYCHYVHYASASTVLPAFGVDAWGQGTTVTVSS VL: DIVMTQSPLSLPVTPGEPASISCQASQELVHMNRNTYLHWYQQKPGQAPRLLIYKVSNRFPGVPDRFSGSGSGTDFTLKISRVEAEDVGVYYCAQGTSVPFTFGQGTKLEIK" class_name="Not fulfilled"
binder="dBBDu183H S100aQ/dBBDu072L (antibody, name in Kabat numbering, V domains shown) VH: QVQLVESGGGLVQPGRSLRLSCAASGFTFSNAWMHWVRQAPGKGLEWVAQIKDKGNAYAAYYAPSVKGRFTISRDDSKNSIYLQMNSLKTEDTAVYYCHYVHYASAQTVLPAFGVDAWGQGTTVTVSS VL: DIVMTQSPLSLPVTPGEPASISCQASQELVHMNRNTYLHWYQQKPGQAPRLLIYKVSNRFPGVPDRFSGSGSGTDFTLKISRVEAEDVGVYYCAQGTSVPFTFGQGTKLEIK" class_name=Fulfilled

Q: Is it true that fold change of affinity reported for dBBDu183H V63D/dBBDu072L (antibody, name in Kabat numbering, V domains shown) VH: QVQLVESGGGLVQPGRSLRLSCAASGFTFSNAWMHWVRQAPGKGLEWVAQIKDKGNAYAAYYAPSDKGRFTISRDDSKNSIYLQMNSLKTEDTAVYYCHYVHYASASTVLPAFGVDAWGQGTTVTVSS VL: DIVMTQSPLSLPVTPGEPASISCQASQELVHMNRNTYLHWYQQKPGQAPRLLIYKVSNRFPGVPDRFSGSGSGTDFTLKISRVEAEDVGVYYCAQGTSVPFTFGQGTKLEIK is less than 0.6 fold?
Result: Not fulfilled

Q: Is it true that fold change of affinity reported for dBBDu183H F100gN/dBBDu072L (antibody, name in Kabat numbering, V domains shown) VH: QVQLVESGGGLVQPGRSLRLSCAASGFTFSNAWMHWVRQAPGKGLEWVAQIKDKGNAYAAYYAPSVKGRFTISRDDSKNSIYLQMNSLKTEDTAVYYCHYVHYASASTVLPANGVDAWGQGTTVTVSS VL: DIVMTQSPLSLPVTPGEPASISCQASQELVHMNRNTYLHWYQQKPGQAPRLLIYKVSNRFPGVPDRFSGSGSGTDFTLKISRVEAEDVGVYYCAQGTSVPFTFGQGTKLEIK is less than 0.6 fold?
Result: Not fulfilled

Q: Is it true that fold change of affinity reported for dBBDu183H D101V/dBBDu072L (antibody, name in Kabat numbering, V domains shown) VH: QVQLVESGGGLVQPGRSLRLSCAASGFTFSNAWMHWVRQAPGKGLEWVAQIKDKGNAYAAYYAPSVKGRFTISRDDSKNSIYLQMNSLKTEDTAVYYCHYVHYASASTVLPAFGVVAWGQGTTVTVSS VL: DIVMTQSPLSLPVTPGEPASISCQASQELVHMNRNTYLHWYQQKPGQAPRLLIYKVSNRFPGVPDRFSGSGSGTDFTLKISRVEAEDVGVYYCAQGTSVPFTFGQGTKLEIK is less than 0.6 fold?
Result: Fulfilled

Q: Is it true that fold change of affinity reported for dBBDu183H Y94G/dBBDu072L (antibody, name in Kabat numbering, V domains shown) VH: QVQLVESGGGLVQPGRSLRLSCAASGFTFSNAWMHWVRQAPGKGLEWVAQIKDKGNAYAAYYAPSVKGRFTISRDDSKNSIYLQMNSLKTEDTAVYYCHGVHYASASTVLPAFGVDAWGQGTTVTVSS VL: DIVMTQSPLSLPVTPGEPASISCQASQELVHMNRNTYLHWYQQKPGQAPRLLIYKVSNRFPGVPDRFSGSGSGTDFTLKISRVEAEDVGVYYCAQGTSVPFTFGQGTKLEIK is less than 0.6 fold?
Result: Not fulfilled
